compounds and their reported TGI
test system: OVCAR-3 ovarian; assay: NCI tumour cell line growth inhibition, 48 h
measure: TGI

1) Oc1c(Nc2ccccc2)cc2c3c1N=NC=3CCN=2 = > 100 µM
2) CC(C)[C@]12O[C@H]1[C@@H]1O[C@]13[C@]1(O[C@H]1C[C@H]1C4=C(CC[C@@]13C)C(=O)OC4)[C@@H]2OC(=O)OC(C)(C)C = 0.883 µM
3) CCOC(=O)c1csc(NC(=O)CCN2CCOCC2)n1 = > 100 µM
4) O=C(Cc1c(C(=O)Nc2ccccc2)sc(C(=O)Nc2ccccc2)c1CC(=O)Nc1ccccc1)Nc1ccccc1 = > 100 µM
5) Cc1cc2c(=O)cc(-c3ccc(C(=O)O)cc3)oc2c(C(N)=O)c1C = > 100 µM
6) Cc1cc2c(=O)cc(-c3ccc(Cl)cc3Cl)oc2c(C(=O)O)c1C = > 100 µM
7) CCc1nc2c(n1CC)C(=O)c1ccccc1C2=O = 53.9 µM
8) Cc1cnc2cc(Cl)ccc2c1NCCN(CC(C)C)CC(C)C = > 100 µM
9) COc1ccc(-c2cc(=O)c3cc4c(cc3[nH]2)OCO4)c(OC)c1 = > 100 µM
10) COc1ccc2cc(NC(=O)Nn3cnnc3)ccc2c1 = > 100 µM
